// values below are reported Max MFI
Target: T1, human CD24 (human, UniProt P25063 27-59, heavily glycosylated, GPI-anchored (as described in the background))
T1 construct: whole, on cells; Target of all cell-based FACS assays; also called hCD24; Cluster of differentiation 24
T1 chain (looked up): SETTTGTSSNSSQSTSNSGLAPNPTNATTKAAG
Test: FACS, HT-29 cells
Write no unit; give the number alone.

Form: binder = 100F2E3 (antibody, V domains shown, mouse monoclonal antibody) VH: QVQLQQPGAELVRPGSSVKLSCKTSDYTFTSYWMDWVKQRPGQGLEWIGNIYPSDSKTHSNQKFRDKATLTVDKSSSTAYMQLNSLTSEDSAVYYCARRGGYYGYAMDYWGQGTSVTVSS VL: DIVMTQSPSSLSVSAGEKVTMSCKSSQSLLNSGNQDNYLAWYQQKPGQPPKLLIYGASIRESGVPDRFTGSGSGTDFTLTISSVQAEDLAVYYCQNDHSYPYTFGGGTKLEIK ; Max MFI = 2420

Quick note, Max MFI for SN3 (antibody, V domains shown) VH: QVQLKESGPGLVAPSQSLSITCTVSGFSLTSYGVHWVRQPPGKGLEWLGVIWAGGSTNYNSALMSRLSISKDNSKSQVFLKMNSLQTDDTAMYYCAVYYGYLFFAYWGQGTLVTVSA VL: ENVLTQSPAIMSASPGEKVTMTCSASSSVSYMHWYQQKSTTSPKLWIYDTSKLASGVPGRFSGSGSGNSYSLTISSMEAEDVATYYCFQGSGYPLTFGGGTKLEIK landed at 5900

Max MFI reading for 110D4G4 (antibody, V domains shown, mouse monoclonal antibody; also called mAb-110D4G4) VH: EVQLQQSGPGLVKPGASVKISCRASGYLFTGYYMNWVKQSPEKSLEWIGEINPNTGDPRYDQKFKAKATLTVDRSSSTAYMHLKSLTSEDSAVYFCARRDYGTSLDYWGQGTTLTVTS VL: DVQITQSPSYLAASPGETITINCRASKSISKYLAWYQEKPGKTNKLLIYSGSTLQSGIPSRFSGSGSGSDFTLTISSLEPEDFAMYYCQQHNEYPLTFGAGTKLELK : 5610
